measured.quantity: melting point

Dear reader, for each entry below, please note its melting point.
1. Cc1c[nH]c2ncnc(N[C@H]3CC[C@H](NC(=NC#N)Nc4cccc(Cl)c4)CC3)c12
2. Cc1c[nH]c2ncnc(NCCCCNC(=NC#N)Nc3cccc(I)c3)c12
3. Cc1c[nH]c2ncnc(N[C@@H]3CCCC[C@H]3NC(=NC#N)Nc3cccc(I)c3)c12

## Output
1. 120 to 122 °C
2. 90 to 91 °C
3. 128 to 129 °C

Dear reader, for each entry below, please note its melting point.
1. Cc1c[nH]c2ncnc(NCCNC(=NC#N)Nc3cccc(Cl)c3)c12
2. Cc1c[nH]c2ncnc(NCCNC(=NC#N)Nc3cccc(Br)c3)c12
3. Cc1c[nH]c2ncnc(N3CCN(C(=NC#N)Nc4cccc(I)c4)[C@@H](C)C3)c12

## Output
1. 87 to 88 °C
2. 86 to 88 °C
3. 130 to 131 °C

Dear reader, for each entry below, please note its melting point.
1. Cc1c[nH]c2ncnc(NCCCNC(=NC#N)Nc3cccc(I)c3)c12
2. Cc1c[nH]c2ncnc(NCCNC(=NC#N)Nc3cccc(I)c3)c12

## Output
1: 91 to 93 °C; 2: 88 to 89 °C

Cited source for all entries: paper PMC8711653
